Assay: Pharmacokinetic assessment, plasma and brain
Format: in vivo, male C57BL/6 mice
Settings: male, C57BL/6, mouse, plasma; SC 10 mg/kg; 0.5 hr; read-out: Mean plasma Concentration
Quick list: concentration at 0.5 hr per entry.

compound | concentration at 0.5 hr [ng/mL]
CCC(N)Cc1cc(OC)c(C(F)(F)F)cc1OC (racemic) | 422
CCC(N)Cc1cc(OC)c(C)cc1OC (racemic) | 662

* * *

Molecular target: UniProt P28223
Sequence (P28223 whole entry): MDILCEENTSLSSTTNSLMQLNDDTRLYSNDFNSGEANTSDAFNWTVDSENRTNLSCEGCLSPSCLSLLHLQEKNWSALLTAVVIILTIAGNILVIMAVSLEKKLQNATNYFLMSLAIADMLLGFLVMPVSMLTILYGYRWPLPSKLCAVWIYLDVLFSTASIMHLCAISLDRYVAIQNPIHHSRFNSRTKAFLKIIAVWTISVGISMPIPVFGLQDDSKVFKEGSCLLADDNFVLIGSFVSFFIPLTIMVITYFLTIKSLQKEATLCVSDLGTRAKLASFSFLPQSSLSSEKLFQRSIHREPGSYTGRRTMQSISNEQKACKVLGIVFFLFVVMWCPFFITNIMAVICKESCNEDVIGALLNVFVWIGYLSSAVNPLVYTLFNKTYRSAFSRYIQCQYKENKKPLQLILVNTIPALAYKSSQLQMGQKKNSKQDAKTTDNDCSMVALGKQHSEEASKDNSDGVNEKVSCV
Assay: IP1 agonism (IP1 formation assay), Cerep, Eurofins
Type: cell-based
Set-up: purchased Cerep, Eurofins (contract assay)
Details: 5-HT2a (IP1 agonism), Table 2; duplicate averages only
Counter-ions that a name gives are not always drawn.

compound | EC50, nM
CCC(N)Cc1cc(OC)c(Br)cc1OC (centres unmarked) | 90
CCOc1cc(CC(N)CC)c(OC)cc1C(F)(F)F (centres unmarked) | 280
CCCc1cc(OC)c(CC(N)CC)cc1OC (centres unmarked) | 210
CCC(N)Cc1cc(OC)c(S(C)(=O)=O)cc1OC (centres unmarked) [Compound 33, trifluoroacetate] | 3400
CCC(N)Cc1cc(OC)c(C)cc1OC (racemic) | 1300
CCc1cc(OC)c(CC(N)CC)cc1OC (centres unmarked) | 1900
CCC(N)Cc1cc(OC)c(C2CC2)cc1OC (centres unmarked) | 3700
CCC(N)Cc1cc(OC)c(C#N)cc1OC (centres unmarked) [Compound 4, trifluoroacetate] | 11000
CCC(N)Cc1cc(OC)c(I)cc1OC (centres unmarked) | 9700
CCC(N)Cc1c(OC)cc(C)cc1OC (centres unmarked) | 10000
CCC(N)Cc1cc(OC)c(Cl)cc1OC (centres unmarked) | 190
CCC(N)Cc1cc(OC)c(SC)cc1OC (centres unmarked) | 160
CCC(N)Cc1cc(OC)c(C(F)(F)F)cc1OC (racemic) | 50
CCSc1cc(OC)c(CC(N)CC)cc1OC (centres unmarked) | 53
